experimental-system: human GPR84 receptor (Homo sapiens, UniProt Q9NQS5)
Construct: host or cells: HEK293, transient transfection
Sequence (Q9NQS5 whole entry): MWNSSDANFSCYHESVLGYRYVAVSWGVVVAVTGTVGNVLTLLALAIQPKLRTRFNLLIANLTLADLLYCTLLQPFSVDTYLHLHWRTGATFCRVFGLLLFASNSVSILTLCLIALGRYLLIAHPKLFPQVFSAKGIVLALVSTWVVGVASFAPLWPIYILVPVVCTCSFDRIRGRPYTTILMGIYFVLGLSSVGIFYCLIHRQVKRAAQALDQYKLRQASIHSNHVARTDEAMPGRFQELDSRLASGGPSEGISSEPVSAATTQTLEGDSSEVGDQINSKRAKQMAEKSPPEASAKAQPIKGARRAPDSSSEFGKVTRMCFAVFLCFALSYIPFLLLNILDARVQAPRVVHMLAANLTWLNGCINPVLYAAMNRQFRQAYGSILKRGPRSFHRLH
method: Gαi biosensor BRET assay in HEK293 cells (antagonism of ZQ-16)
Format: cell-based
measurement-conditions: HEK293, single concentration 10 μM (designated F)
For each entry below, report its inhibition at 10 µM value.

Which measured inhibition at 10 µM belongs to CC(=O)N1CCOCC1Cn1cc(-c2ccc(C#CC3CC3)cc2C)nn1 (centres unmarked) , tested on human GPR84 receptor (Homo sapiens, UniProt Q9NQS5)?
≤ 25%

Which measured inhibition at 10 µM belongs to `Cc1cc(N2CC(C)(CO)C2)cnc1-c1cn(CCc2ncccn2)nn1` , tested on human GPR84 receptor (Homo sapiens, UniProt Q9NQS5)?
≤ 25%

Which measured inhibition at 10 µM belongs to `Cc1cc(N2CC(C)(C)C2)c(C#CC2CC2)cc1-c1cn(C[C@H]2CCCCO2)nn1` , tested on human GPR84 receptor (Homo sapiens, UniProt Q9NQS5)?
≤ 25%

Which measured inhibition at 10 µM belongs to Cc1cc(C#CCNC(=O)C(F)(F)F)cnc1-c1cn(CC2CCCCO2)nn1 (centres unmarked) , tested on human GPR84 receptor (Homo sapiens, UniProt Q9NQS5)?
> 75%

Which measured inhibition at 10 µM belongs to Cc1ccc(C#CC2CC2)cc1-n1nc(CC2CC(F)(F)CCO2)oc1=O (centres unmarked) , tested on human GPR84 receptor (Homo sapiens, UniProt Q9NQS5)?
> 75%

Which measured inhibition at 10 µM belongs to COCC#Cc1ccc(-c2nnn(CC3CCCCO3)c2C)cc1 (centres unmarked) , tested on human GPR84 receptor (Homo sapiens, UniProt Q9NQS5)?
25 to 50%

Which measured inhibition at 10 µM belongs to Cc1ccc(C#CC2CC2)cc1C(=O)c1cn(CC2CCCCO2)nn1 (centres unmarked) , tested on human GPR84 receptor (Homo sapiens, UniProt Q9NQS5)?
> 75%

Which measured inhibition at 10 µM belongs to `Cc1cc(C#CCN2CC(C)(C)C2)cnc1-c1cn(C[C@H]2CCCCO2)nn1` , tested on human GPR84 receptor (Homo sapiens, UniProt Q9NQS5)?
> 75%

Which measured inhibition at 10 µM belongs to `Cc1cc(C#CCNC2CC2)ccc1-c1cn(CC2OCC(C)(C)CO2)nn1` , tested on human GPR84 receptor (Homo sapiens, UniProt Q9NQS5)?
> 75%

Which measured inhibition at 10 µM belongs to `CC1(C)CN(CC#Cc2cnc(-c3cn(C[C@H]4CCCCO4)nn3)c(CC(F)(F)F)c2)C1` , tested on human GPR84 receptor (Homo sapiens, UniProt Q9NQS5)?
> 75%

Which measured inhibition at 10 µM belongs to Cc1cc(NC(=O)c2ccccc2)ccc1-c1cn(CC2CCCCO2)nn1 (centres unmarked) , tested on human GPR84 receptor (Homo sapiens, UniProt Q9NQS5)?
≤ 25%

Which measured inhibition at 10 µM belongs to CC(c1ccnc(C#CC2CC2)c1)c1cn(CC2CCCCO2)nn1 (centres unmarked) , tested on human GPR84 receptor (Homo sapiens, UniProt Q9NQS5)?
≤ 25%

Which measured inhibition at 10 µM belongs to `Cc1cc(C#CC2CC2)ccc1-c1cn(CC23CC(CO2)C3)nn1` , tested on human GPR84 receptor (Homo sapiens, UniProt Q9NQS5)?
≤ 25%

Which measured inhibition at 10 µM belongs to `OCC#Cc1cnc(-c2cn(CC3OCC4(CC4)CO3)nn2)c(OC2CC2)c1` , tested on human GPR84 receptor (Homo sapiens, UniProt Q9NQS5)?
> 75%

Which measured inhibition at 10 µM belongs to Cc1cc(N2CC3(CC3)C2)cnc1-c1cn(CC2CCCCO2)nn1 (centres unmarked) , tested on human GPR84 receptor (Homo sapiens, UniProt Q9NQS5)?
≤ 25%

Which measured inhibition at 10 µM belongs to `Cc1cc(N2CCN(Cc3ccccn3)CC2)ccc1-c1cn(CC2OCC(C)(C)CO2)cn1` , tested on human GPR84 receptor (Homo sapiens, UniProt Q9NQS5)?
> 75%

Which measured inhibition at 10 µM belongs to CCc1cc(N2CC(C)(C)C2)cnc1-c1cn(CC2CCCCO2)nn1 (centres unmarked) , tested on human GPR84 receptor (Homo sapiens, UniProt Q9NQS5)?
50 to 75%

Which measured inhibition at 10 µM belongs to Cc1ccc(N2CC(C)(C)C2)cc1Cc1cn(CC2CCCCO2)nn1 (centres unmarked) , tested on human GPR84 receptor (Homo sapiens, UniProt Q9NQS5)?
≤ 25%

Which measured inhibition at 10 µM belongs to CC(O)(c1cccc(C#CC2CC2)c1)c1cn(CC2CCCCO2)nn1 (centres unmarked) , tested on human GPR84 receptor (Homo sapiens, UniProt Q9NQS5)?
25 to 50%

Which measured inhibition at 10 µM belongs to Cc1cc(C#CC2CC2)ccc1-c1cn(CC2COc3ccccc3O2)nn1 (centres unmarked) , tested on human GPR84 receptor (Homo sapiens, UniProt Q9NQS5)?
25 to 50%

Which measured inhibition at 10 µM belongs to `COCCn1cc(-c2ccc(C#CC3CC3)cc2)nn1` , tested on human GPR84 receptor (Homo sapiens, UniProt Q9NQS5)?
≤ 25%

Which measured inhibition at 10 µM belongs to `Cc1cc(N2CCN(Cc3ccccn3)C(=O)C2)ccc1-c1cn(CC2OCC(C)(C)CO2)nn1` , tested on human GPR84 receptor (Homo sapiens, UniProt Q9NQS5)?
25 to 50%

Which measured inhibition at 10 µM belongs to COc1ccc(C#CC2CC2)cc1-c1cn(CC2CCCCO2)nn1 (centres unmarked) , tested on human GPR84 receptor (Homo sapiens, UniProt Q9NQS5)?
≤ 25%

Which measured inhibition at 10 µM belongs to `Cc1cc(N2CC(C)(C)C2)c(Cl)cc1-c1cn(C[C@H]2CCCCO2)nn1` , tested on human GPR84 receptor (Homo sapiens, UniProt Q9NQS5)?
> 75%

Which measured inhibition at 10 µM belongs to `Cc1cc(C#CCNc2ccccc2)cnc1-c1cn(C[C@H]2CCCCO2)nn1` , tested on human GPR84 receptor (Homo sapiens, UniProt Q9NQS5)?
> 75%

Which measured inhibition at 10 µM belongs to `CC1(C)CN(c2ccc(-c3cn(C[C@H]4CCCCO4)nn3)c(OC3CC3)c2)C1` , tested on human GPR84 receptor (Homo sapiens, UniProt Q9NQS5)?
50 to 75%

Which measured inhibition at 10 µM belongs to `Cc1cc(C#CC2CC2)ccc1-c1cn(Cc2ccccn2)nn1` , tested on human GPR84 receptor (Homo sapiens, UniProt Q9NQS5)?
25 to 50%

Which measured inhibition at 10 µM belongs to Cc1c(C(C)c2cccc(C#CC3CC3)c2)nnn1CC1CCCCO1 (centres unmarked) , tested on human GPR84 receptor (Homo sapiens, UniProt Q9NQS5)?
≤ 25%

Which measured inhibition at 10 µM belongs to CC1(CO)CN(c2cnc(-c3cn(CC4OCC5(CCC5)O4)nn3)c(Cl)c2)C1 (centres unmarked) , tested on human GPR84 receptor (Homo sapiens, UniProt Q9NQS5)?
> 75%

Which measured inhibition at 10 µM belongs to Cc1cc(C#CC2CC(F)(F)C2)cnc1-c1cn(CC2CCCCO2)nn1 (centres unmarked) , tested on human GPR84 receptor (Homo sapiens, UniProt Q9NQS5)?
> 75%

Which measured inhibition at 10 µM belongs to Cc1cc(N2CC3(CCNCC3)C2)ccc1-c1cn(CC2CCCCO2)nn1 (centres unmarked) , tested on human GPR84 receptor (Homo sapiens, UniProt Q9NQS5)?
25 to 50%

Which measured inhibition at 10 µM belongs to C(#CC1CC1)c1ccc(-c2cn(CC3OCC4(CCC4)O3)nn2)c(OC2CC2)c1 (centres unmarked) , tested on human GPR84 receptor (Homo sapiens, UniProt Q9NQS5)?
> 75%

Which measured inhibition at 10 µM belongs to Cc1cc(C#CCNc2ccncc2)ccc1-c1cn(CC2CCCCO2)nn1 (centres unmarked) , tested on human GPR84 receptor (Homo sapiens, UniProt Q9NQS5)?
25 to 50%

Which measured inhibition at 10 µM belongs to Cc1cc(C#CC2CC2)cnc1-c1cn(CC2CCCCO2)nn1 (centres unmarked) , tested on human GPR84 receptor (Homo sapiens, UniProt Q9NQS5)?
> 75%

Which measured inhibition at 10 µM belongs to Cc1cc(F)c(C#CC2CC2)cc1-c1cn(CC2CCCCO2)nn1 (centres unmarked) , tested on human GPR84 receptor (Homo sapiens, UniProt Q9NQS5)?
50 to 75%
